Biological target: F508delCFTR (Homo sapiens, UniProt P13569, DEL508-508)
Construct: expressed in transfected cells; host or cells: CFBE41o- human lung-derived epithelial cells (CFBE4lo-F508delCFTR-HRP), doxycycline-inducible
Sequence (P13569 with tags, fused parts or gaps DEL508-508): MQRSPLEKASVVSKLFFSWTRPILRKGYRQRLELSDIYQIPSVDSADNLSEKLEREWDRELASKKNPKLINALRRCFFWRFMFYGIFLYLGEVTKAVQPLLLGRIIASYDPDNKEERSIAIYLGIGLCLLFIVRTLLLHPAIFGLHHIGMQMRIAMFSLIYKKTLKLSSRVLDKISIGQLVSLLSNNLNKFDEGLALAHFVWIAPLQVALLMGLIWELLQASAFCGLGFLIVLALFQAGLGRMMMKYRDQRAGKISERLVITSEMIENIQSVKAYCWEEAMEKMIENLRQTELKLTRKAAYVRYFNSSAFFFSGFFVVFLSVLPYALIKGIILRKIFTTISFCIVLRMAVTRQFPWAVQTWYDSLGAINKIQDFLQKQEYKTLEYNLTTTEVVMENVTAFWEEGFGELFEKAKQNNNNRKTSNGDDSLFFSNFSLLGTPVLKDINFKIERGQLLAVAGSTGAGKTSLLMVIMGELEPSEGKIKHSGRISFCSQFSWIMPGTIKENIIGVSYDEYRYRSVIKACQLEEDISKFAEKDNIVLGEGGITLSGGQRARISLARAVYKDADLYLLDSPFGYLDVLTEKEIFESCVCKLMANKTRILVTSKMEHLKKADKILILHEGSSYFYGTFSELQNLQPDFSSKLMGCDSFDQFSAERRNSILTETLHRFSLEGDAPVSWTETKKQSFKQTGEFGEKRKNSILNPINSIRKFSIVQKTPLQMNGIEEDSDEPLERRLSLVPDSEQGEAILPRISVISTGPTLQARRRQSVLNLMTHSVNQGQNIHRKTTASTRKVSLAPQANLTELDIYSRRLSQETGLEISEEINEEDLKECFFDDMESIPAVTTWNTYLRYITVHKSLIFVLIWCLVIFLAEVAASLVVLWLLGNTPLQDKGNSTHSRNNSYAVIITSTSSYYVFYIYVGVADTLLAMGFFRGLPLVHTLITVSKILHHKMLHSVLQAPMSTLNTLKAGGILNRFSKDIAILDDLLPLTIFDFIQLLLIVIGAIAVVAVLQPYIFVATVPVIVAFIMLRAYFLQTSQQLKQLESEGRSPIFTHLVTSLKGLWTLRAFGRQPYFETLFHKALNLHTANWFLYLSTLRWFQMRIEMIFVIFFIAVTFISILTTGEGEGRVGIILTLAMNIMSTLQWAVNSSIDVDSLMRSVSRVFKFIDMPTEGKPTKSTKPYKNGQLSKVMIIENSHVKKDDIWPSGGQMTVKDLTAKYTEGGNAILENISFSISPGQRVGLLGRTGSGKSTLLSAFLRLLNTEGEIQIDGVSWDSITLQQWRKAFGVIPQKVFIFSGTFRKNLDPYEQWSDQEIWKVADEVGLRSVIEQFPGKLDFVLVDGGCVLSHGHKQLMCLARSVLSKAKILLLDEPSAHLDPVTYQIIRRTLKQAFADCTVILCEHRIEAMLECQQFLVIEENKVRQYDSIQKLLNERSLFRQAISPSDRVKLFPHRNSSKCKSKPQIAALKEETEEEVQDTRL
Assay: Cell Surface Expression-Horse Radish Peroxidase (CSE-HRP) Assay
Type: cell-based
Conditions: with co-corrector (2 μM of 3-[(2R,4R)-4-({[1-(2,2-difluoro-1,3-benzodioxol-5-yl)cyclopropyl]carbonyl}amino)-7-methoxy-3,4-dihydro-2H-chromen-2-yl]benzoic acid); read-out: EC50 (with co-corrector)
Endpoint Label: EC50

Worked cases, answers included:
Compound	System	EC50
COc1cccc(-c2cc(CN[C@H]3[C@H](C(C)(C)C)[C@@H](C(=O)O)N(C(=O)C4CCCCC4)[C@H]3c3ccccc3)c(OC)cn2)c1	F508delCFTR (Homo sapiens, UniProt P13569, DEL508-508)	1000 to 10000 nM
COc1ccc(S(F)(F)(F)(F)F)cc1CN[C@H]1[C@H](C(C)(C)C)[C@@H](C(=O)O)N(C(=O)C2CCCCC2)[C@H]1c1ccccc1	F508delCFTR (Homo sapiens, UniProt P13569, DEL508-508)	< 1000 nM

Report EC50 for each item below.
1. COc1ccc(Cl)cc1CN[C@@H]1[C@@H](C(C)(C)C)[C@H](C(=O)O)N(C(=O)C2CCCCC2)[C@@H]1c1ccccc1 (racemic)
2. COCCOc1ncc(C(F)(F)F)cc1CN[C@@H]1[C@@H](C(C)(C)C)[C@H](C(=O)O)N(C(=O)C2CCCCC2)[C@@H]1c1ccccc1 (racemic)
3. CC(C)(C)[C@H]1[C@H](NCc2ccc(F)cc2C#N)[C@H](c2ccccc2)N(C(=O)C2CCCCC2)[C@@H]1C(=O)O
4. COCCn1ccnc1CN[C@@H]1[C@@H](C(C)(C)C)[C@H](C(=O)O)N(C(=O)C2CCCCC2)[C@@H]1c1ccccc1 (racemic)
5. COc1ncc(C(F)(F)F)cc1CN[C@H]1[C@H](C(C)(C)C)[C@@H](C(=O)O)N(C(=O)[C@@H]2CCCCO2)[C@H]1c1ccccc1
6. COc1ccc(C(C)(C)C)cc1CN[C@H]1[C@H](C(C)(C)C)[C@@H](C(=O)O)N(C(=O)C2CCCCO2)[C@H]1c1ccccc1 (some centres unmarked) [II-318]
7. COc1cc(C(F)(F)F)ccc1CN[C@H]1[C@H](C(C)(C)C)[C@@H](C(=O)O)N(C(=O)OC(C)C)[C@H]1c1cccnc1N(C)C

1. 1000 to 10000 nM
2. 1000 to 10000 nM
3. > 10000 nM
4. > 10000 nM
5. 1000 to 10000 nM
6. 1000 to 10000 nM
7. 1000 to 10000 nM

Return reported EC50 values for all items listed beneath this line.
1. CC(C)(C)[C@@H]1[C@@H](NCc2cc(S(C)(=O)=O)ccc2O)[C@@H](c2ccccc2)N(C(=O)C2CCCCC2)[C@H]1C(=O)O (racemic)
2. COc1ccc(C(F)(F)F)cc1CN[C@H]1[C@H](C(C)(C)C)[C@@H](C(=O)O)N(C(=O)C2OC[C@@H]3CCC[C@H]23)[C@H]1c1ccccc1 (relative stereo)
3. COc1ncc(C(F)(F)F)cc1CN[C@H]1[C@H](C(C)(C)C)[C@@H](C(=O)O)N(C(=O)[C@H](C)OC)[C@H]1c1ccccc1C(C)C
4. COc1ncc(C(F)(F)F)cc1CN[C@H]1[C@H](C(C)(C)C)[C@@H](C(=O)O)N(C(=O)[C@H]2CC[C@@H](c3ccccc3)O2)[C@H]1c1ccccc1 (relative stereo)
5. COc1ccc(C(C)(C)C)cc1CN[C@H]1[C@H](C(C)(C)C)[C@@H](C(=O)O)N(C(=O)[C@@H]2CCCO2)[C@H]1c1ccccc1C1CC1

> 10000 nM
1000 to 10000 nM
< 1000 nM
< 1000 nM
1000 to 10000 nM

Parameters: items (list). Returns: EC50 for each item.
1. CC(C)(C)[C@H]1[C@H](Nc2ccc(C3(C#N)CC3)cn2)[C@H](c2ccccc2)N(C(=O)C2CCCCC2)[C@@H]1C(=O)O
2. COc1ccc(C(C)(C)C)cc1CN[C@H]1[C@H](C(C)(C)C)[C@@H](C(=O)O)N(C(=O)[C@@H]2CCCCO2)[C@H]1c1ccccc1Br
3. Cc1cc(C(F)(F)F)cc(N[C@@H]2[C@@H](C(C)(C)C)[C@H](C(=O)NS(=O)(=O)C3CC3)N(C(=O)C3CCCCC3)[C@@H]2c2ccccc2)n1 (racemic)
4. COc1ncc(-c2ccc(C)cc2)cc1CN[C@H]1[C@H](C(C)(C)C)[C@@H](C(=O)O)N(C(=O)C2CCCCC2)[C@H]1c1ccccc1
5. COc1ccc(OC(F)(F)F)cc1CN[C@H]1[C@H](C(C)(C)C)[C@@H](C(=O)O)N(C(=O)OC(C)C)[C@H]1c1cccnc1OC(C)C

1000 to 10000 nM
< 1000 nM
< 1000 nM
< 1000 nM
1000 to 10000 nM

Field: EC50. Fill in for each record below.
1. COc1ccc(C(C)(C)C)cc1CN[C@H]1[C@H](C(C)(C)C)[C@@H](C(=O)O)N(C(=O)[C@@H]2CCC[C@H](O)C2)[C@H]1c1ccccc1
2. CC(C)(C)[C@H]1[C@H](Nc2ccc(Cn3ccccc3=O)cn2)[C@H](c2ccccc2)N(C(=O)C2CCCCC2)[C@@H]1C(=O)O
3. COc1ccc(C(C)(C)C)cc1CN[C@H]1[C@H](C(C)(C)C)[C@@H](C(=O)O)N(C(=O)C2CCC(F)(F)CC2)[C@H]1c1cccnc1N(C)C

1000 to 10000 nM
> 10000 nM
1000 to 10000 nM

Entry COc1ccc(Cl)cc1CN[C@@H]1[C@@H](C2CC2)[C@H](C(=O)O)N(C(=O)N(C(C)C)C(C)C)[C@@H]1c1ccccc1 (racemic) has what EC50?
1000 to 10000 nM

---

Target: F508delCFTR (Homo sapiens, UniProt P13569, DEL508-508)
Construct: expressed in transfected cells; host or cells: CFBE41o- human lung-derived epithelial cells (CFBE4lo-F508delCFTR-HRP), doxycycline-inducible
Assay: Cell Surface Expression-Horse Radish Peroxidase (CSE-HRP) Assay
Format: cell-based
Conditions: with co-corrector (2 μM of 3-[(2R,4R)-4-({[1-(2,2-difluoro-1,3-benzodioxol-5-yl)cyclopropyl]carbonyl}amino)-7-methoxy-3,4-dihydro-2H-chromen-2-yl]benzoic acid); read-out: EC50 (with co-corrector)
Provide the reported EC50 of each item.

Compound	EC50
COc1ccc(C(C)(C)C)cc1CN[C@H]1[C@H](C(C)(C)C)[C@@H](C(=O)O)N(C(=O)CN2Cc3ccccc3C2)[C@H]1c1ccccc1	1000 to 10000 nM
CC(C)(C)[C@H]1[C@H](NCC2(c3cccc(Cl)c3)CCOCC2)[C@H](c2ccccc2)N(C(=O)C2CCCCC2)[C@@H]1C(=O)O	1000 to 10000 nM
COc1ccc(C(C)(C)C)cc1CN[C@H]1[C@H](C(C)(C)C)[C@@H](C(=O)O)N(C(=O)C2Cc3ccccc3O2)[C@H]1c1ccccc1 (single isomer, unassigned)	< 1000 nM
COc1ccc(C(C)(C)C)cc1CN[C@H]1[C@H](C(C)(C)C)[C@@H](C(=O)O)N(C(=O)[C@@H](C)Oc2ccccc2)[C@H]1c1ccccc1	1000 to 10000 nM
CC(N[C@@H]1[C@@H](C(C)(C)C)[C@H](C(=O)O)N(C(=O)C2CCCCC2)[C@@H]1c1ccccc1)c1ccc2c(c1)OC(F)(F)O2 (mixture of isomers)	1000 to 10000 nM
Cc1cc(C(F)(F)F)cc(N[C@@H]2[C@@H](C(C)(C)C)[C@H](C(=O)O)N(C(=O)C3CCC4(CC3)CC4)[C@@H]2c2ccccc2)n1 (racemic)	1000 to 10000 nM

For each of the compounds below, state EC50.
1. COc1ccc(C(C)(C)C)cc1CN[C@H]1[C@H](C(C)(C)C)[C@@H](C(=O)O)N(C(=O)C2CCCCC2)[C@H]1c1ccccc1F
2. COc1ccc(C(F)(F)F)cc1CN[C@@H]1[C@@H](C(C)(C)C)[C@H](C(=O)O)N(C(=O)C2CCCCC2)[C@H]1c1ccccc1
3. COc1cc(C(F)(F)F)ccc1CN[C@@H]1[C@@H](C(C)(C)C)[C@H](C(=O)O)N(C(=O)[C@H](C)c2ccccc2)[C@@H]1c1ccccc1
4. COc1cc2c(cc1CN[C@@H]1[C@H](C(C)(C)C)[C@@H](C(=O)O)N(C(=O)OC(C)C)[C@H]1c1ccccc1)CCC2
5. COc1ccc(C(C)(C)C)cc1CN[C@H]1[C@H](C(C)(C)C)[C@@H](C(=O)O)N(C(=O)[C@H](C)c2ccccc2)[C@H]1c1cccnc1OC

1. < 1000 nM
2. 1000 to 10000 nM
3. > 10000 nM
4. 1000 to 10000 nM
5. 1000 to 10000 nM

For the compound COC1(CN[C@H]2[C@H](C(C)(C)C)[C@@H](C(=O)O)N(C(=O)C3CCCCC3)[C@H]2c2ccccc2)CCCCC1 , what EC50 is on record?
1000 to 10000 nM
